Could you please report measured MIC for the items listed next?
- Test system: E. coli (1956)
- Test method notes: MIC determination by microplate dilution, E. coli animal strain
- Type: cell-based, Escherichia coli
- Conditions: Escherichia coli, Gram-negative, Mueller-Hinton medium, 24 h, 37° C.
Numbers only, in µg/mL.

Recorded results for 2 compounds are shown here.
Compound	Unit name	MIC
CC(C)OC(=O)CC[C@@H](C)[C@H]1CCC2C3CCC4C[C@@H](NCCCNCCCN)CC[C@]4(C)C3CC[C@@]21C (stereo partly drawn) [(16), isopropyl 3β-norspermidinolithocholate]	µg/mL	7
CC(C)OC(=O)CC[C@@H](C)[C@H]1CCC2C3C(CC[C@@]21C)[C@@]1(C)CC[C@H](NCCN(CCN)CCN)CC1C[C@@H]3O (stereo partly drawn) [(43)]	µg/mL	56

Lab note: next compound to report on.
Inquiry: Which MIC value is on record for CC(C)OC(=O)CC[C@@H](C)[C@H]1CCC2C3CCC4C[C@@H](NCCCN(C)CCCN)CC[C@]4(C)C3CC[C@@]21C (stereo partly drawn) [(49)] ?
Reply text: 27

FYI, the data here is from patent US20190255073A1.
